Can you tell me Kd for the items I'm about to list?
- Measured target: SulE (Hansschlegelia zhihuaiae, UniProt G9I933, P80R)
- Construct: pET-29a(+), E. coli BL21(DE3), C-terminal His6 tag; full-length precursor 398 aa, predicted signal peptide cleavage Ala37/Glu38; homodimer, lid loop of one subunit covers active site of the other; residues 12-360 (mature count) seen in crystal
- Sequence (G9I933 entry or part of it P80R): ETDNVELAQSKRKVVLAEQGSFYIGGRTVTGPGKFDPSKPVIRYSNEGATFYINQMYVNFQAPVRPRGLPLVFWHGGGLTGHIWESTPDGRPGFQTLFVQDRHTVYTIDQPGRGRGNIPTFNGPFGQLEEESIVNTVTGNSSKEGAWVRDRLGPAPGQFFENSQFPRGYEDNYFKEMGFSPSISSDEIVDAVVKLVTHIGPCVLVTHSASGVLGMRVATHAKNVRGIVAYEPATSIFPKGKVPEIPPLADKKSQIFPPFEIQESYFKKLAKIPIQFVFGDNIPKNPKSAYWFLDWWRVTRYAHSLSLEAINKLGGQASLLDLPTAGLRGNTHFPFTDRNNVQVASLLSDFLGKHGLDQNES
- Assay comment: SPR (Biacore T200, protein amine-coupled to CM7 chip), steady-state affinity
One number for each entry, in µM.

INSERT INTO results (smi, measured_target, value_observed) VALUES
  ('COC(=O)c1ccccc1S(=O)(=O)NC(=O)Nc1nc(C)nc(OC)n1', 'SulE (Hansschlegelia zhihuaiae, UniProt G9I933, P80R)', 2.89);

Parameter requested: Kd. Apply to each item below.
1. CCOC(=O)c1ccccc1S(=O)(=O)NC(=O)Nc1nc(Cl)cc(OC)n1
2. COC(=O)c1ccccc1CS(=O)(=O)NC(=O)Nc1nc(OC)cc(OC)n1
3. COC(=O)c1sccc1S(=O)(=O)NC(=O)Nc1nc(C)nc(OC)n1

[out]
1. 1.36
2. 5.75
3. 7.25
